System: T-cell
ASSAY_PROCEDURE: IL-2 secretion from T-cells stimulated with anti-CD3 antibody alone (Biological Example 2)
Assay type: cell-based, human
CONDITION_LABEL: T-cell; fold change over baseline; 1 μM Cbl-b inhibitor; primary human total T-cells; read-out: IL-2 secretion Anti-CD3 stimulation
VALUE_TYPE: fold induction at 1 µM

In [3]: df
Out[3]:
                                   molecule         result
0  C[C@H](Cc1nncn1C)c1cccc(N2Cc3c(cccc3C(F)(F)F)C2=O)c1 [Compound 255a]   0.051 to 0.1
1  C[C@H](Cc1nncn1C)c1cccc(NC(=O)c2cc3cccn3cn2)c1   0.051 to 0.1
2  CC(=O)N1CCN(c2ccc3cnc(C(=O)Nc4cccc([C@H](C)Cc5nncn5C)c4)cc3c2)CC1 [Compound 211, 2,2,2-trifluoroacetate]        > 0.201
3  C[C@H](Cc1nncn1C)c1cccc(NC(=O)c2cc(C(C)(C)O)cc(C(F)(F)F)n2)c1  0.101 to 0.15
4  C[C@H](Cc1nncn1C)c1cccc(NC(=O)c2[nH]nc3c2CCCC3)c1   0.051 to 0.1
5  Cc1cc(C(=O)Nc2cccc(C3(Cc4nncn4C)COC3)c2)nc(C2CC2)n1        > 0.201
6  Cc1ccc(C(=O)Nc2cccc(C(C)C(F)(F)c3nncn3C)c2)nc1C1CC1 (centres unmarked)   0.051 to 0.1
7  C[C@@H](Cc1nncn1C)c1cccc(NC(=O)c2cc(C(=O)N3CC[C@H](O)C3)cc(C3CC3)n2)c1   0.051 to 0.1
